ALT for assorted molecules
Species: Rattus norvegicus
ASSAY_PROTOCOL: Open TG-GATES - Regimen: Single
Type: toxicity, organism-based, Sprague-Dawley
Parameters: regimen Single, gender Male, age 6 weeks
CONDITION_SUMMARY: in vivo, po, 0 mg/kg, 9 h, tissue Plasma, route gavage, dose level Control
MEASUREMENT_LABEL: ALT (IU/L)

>>> df
                                   molecule  assay_result
0  CC(CCc1ccccc1)NCC(O)c1ccc(O)c(C(N)=O)c1 (stereo unspecified)          39.4
1          O=C(O)COc1nn(Cc2ccccc2)c2ccccc12            30
2                                CCN(CC)N=O          37.8
3  CC(C)Cc1ccc(C(C)C(=O)O)cc1 (stereo unspecified)          36.6
4             CC(=O)Nc1ccc2c(c1)Cc1ccccc1-2          32.4
5              CC[C@@H](CO)NCCN[C@@H](CC)CO          37.4

----------
Organism: Rattus norvegicus
ASSAY_PROTOCOL: Open TG-GATES - Regimen: Single
Format: toxicity, organism-based, Sprague-Dawley
Parameters: regimen Single, gender Male, age 6 weeks
CONDITION_SUMMARY: in vivo, po, 0 mg/kg, 9 h, tissue Plasma, route gavage, dose level Control
IP for assorted molecules
MEASUREMENT_LABEL: IP (mg/dL)

                                   molecule  measurement_label  assay_result
0        CCN(CC)N=O [N-NITROSODIETHYLAMINE]                 IP             8
1  CC(C)Cc1ccc(C(C)C(=O)O)cc1 (stereo unspecified) [IBUPROFEN]                 IP           9.6
2  CC[C@@H](CO)NCCN[C@@H](CC)CO [ETHAMBUTOL]                 IP             9
3  CC(=O)N1CCN(c2ccc(OCC3COC(Cn4ccnc4)(c4ccc(Cl)cc4Cl)O3)cc2)CC1 (stereo unspecified) [KETOCONAZOLE]                 IP           9.5
4  CC(=O)Nc1ccc2c(c1)Cc1ccccc1-2 [2-ACETYLAMINOFLUORENE]                 IP             9
5  O=C(O)COc1nn(Cc2ccccc2)c2ccccc12 [BENDAZAC]                 IP           9.9

----------
Species: Rattus norvegicus
ASSAY_PROTOCOL: Open TG-GATES - Regimen: Daily Repeat
Type: toxicity, organism-based, Sprague-Dawley
Parameters: regimen Daily Repeat, gender Male, age 6 weeks
CONDITION_SUMMARY: in vivo, po, 0 mg/kg, […], tissue Blood, route gavage, dose level Control, time 28 day
MEASUREMENT_LABEL: Ht (%)

                                   compound  assay_result
0  CC[C@@H](CO)NCCN[C@@H](CC)CO [ETHAMBUTOL]          42.6
1  CC(CCc1ccccc1)NCC(O)c1ccc(O)c(C(N)=O)c1 (stereo not drawn) [LABETALOL]          43.5
2                       CC(N)=O [ACETAMIDE]          41.1
3        CCN(CC)N=O [N-NITROSODIETHYLAMINE]          42.3
4  O=C(O)COc1nn(Cc2ccccc2)c2ccccc12 [BENDAZAC]          45.9
5  CC(C)Cc1ccc(C(C)C(=O)O)cc1 (stereo not drawn) [IBUPROFEN]            43
6  CC(=O)N1CCN(c2ccc(OCC3COC(Cn4ccnc4)(c4ccc(Cl)cc4Cl)O3)cc2)CC1 (stereo not drawn) [KETOCONAZOLE]          43.4
7  CC(=O)Nc1ccc2c(c1)Cc1ccccc1-2 [2-ACETYLAMINOFLUORENE]            43
